Here is a set of molecules with reported Ki for Sodium-dependent dopamine transporter (Homo sapiens), compiled from the literature.

• CSCC[C@@H](N)C(=O)O = > 10 µM
• N[C@@H](CS)C(=O)O = > 10 µM
• Cc1cccc([C@H]2C[C@@H]2CN)c1 (relative stereo) = 5.4 µM
• N[C@H](CCS(=O)(=O)O)C(=O)O = > 10 µM
• CN1[C@H](/C=C/c2ccccc2)CCC[C@@H]1/C=C/c1ccccc1 = 0.043 µM

Find the recorded Ki belonging to N[C@@H](CCS)C(=O)O (racemic) and report it. > 10 µM
